Source of measurements: paper PMC5506036

Molecular target: T1, SmMYB36 (Salvia miltiorrhiza, UniProt A0A059PRJ2 1-160)
T1 sequence: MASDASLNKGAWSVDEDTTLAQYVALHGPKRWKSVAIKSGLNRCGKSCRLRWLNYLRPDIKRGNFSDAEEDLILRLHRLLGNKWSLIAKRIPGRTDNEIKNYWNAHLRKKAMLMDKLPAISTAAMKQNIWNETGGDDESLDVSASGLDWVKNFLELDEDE
Assay: EMSA; Invitrogen EMSA kit, probe:protein mass ratio 1:15, 10 µL; protein eluted in 50 mM NaH2PO4, 300 mM NaCl, 250 mM imidazole pH 8.0; binding buffer and temperature not given
Details: protein: recombinant; tags: His (pET32a fusion); blunt

Binder: IPPI-MBS1 (dsDNA) DNA 1: CCGCCGCCGCCACAACTGTAATGGTGCTTT DNA 2: AAAGCACCATTACAGTTGTGGCGGCGGCGG
binding result: binds

Binder: HMGS1-MBS3 (dsDNA) DNA 1: GTGTGTGCTGTTTAACTGATCCGCTATTTC DNA 2: GAAATAGCGGATCAGTTAAACAGCACACAC
binding result: binds

Binder: MCT-MBS2-2 (dsDNA) DNA 1: AAAACAGGCATCCGGTCAGTAAGTCCGCAT DNA 2: ATGCGGACTTACTGACCGGATGCCTGTTTT
binding result: binds

Binder: DXR-MRE (dsDNA) DNA 1: CCCCTTTTACAAAACCTAATTTCCCCCCAT DNA 2: ATGGGGGGAAATTAGGTTTTGTAAAAGGGG
binding result: binds

Binder: MBSI-1 core (dsDNA) DNA 1: AAAAAACCGTTA DNA 2: TAACGGTTTTTT
binding result: binds

Binder: MCT-MBS2-1 (dsDNA) DNA 1: AGGAAACCCTCACGGTCACCTTAACATTCA DNA 2: TGAATGTTAAGGTGACCGTGAGGGTTTCCT
binding result: binds

Binder: MBSII core (dsDNA) DNA 1: AAAAGTTAGTTA DNA 2: TAACTAACTTTT
binding result: binds

Binder: MCT-MBS3-2 (dsDNA) DNA 1: AACTAGATGAATTAACTGGTAGCAATTACC DNA 2: GGTAATTGCTACCAGTTAATTCATCTAGTT
binding result: binds

Binder: HPPR-MRE-1 (dsDNA) DNA 1: TTTTGTGGGACAAACCTAAAAAGAAACTGAA DNA 2: TTCAGTTTCTTTTTAGGTTTGTCCCACAAAA
binding result: binds

Binder: GGPPS1-MBS2 (dsDNA) DNA 1: TTAAAATCGTTACGGTCATACCACGGAAAC DNA 2: GTTTCCGTGGTATGACCGTAACGATTTTAA
binding result: binds

Binder: HPPR-MRE-2 (dsDNA) DNA 1: AATGATTGATTTAACCTAATCATTGTGAAACC DNA 2: GGTTTCACAATGATTAGGTTAAATCAATCATT
binding result: binds

Binder: C4H1-MBS1 (dsDNA) DNA 1: TCTTTAAAACTCCAACTGATATGATGTTCG DNA 2: CGAACATCATATCAGTTGGAGTTTTAAAGA
binding result: binds
